Below is a list of entries, each paired with its recorded logP value.
# ASSAY: Isoelectric point, log D and log P (SiriusT3)
# Type: physicochemical
# APPLIED_CONDITIONS: octanol/ISA water; read-out: logP
Residues, ends and D or L forms follow the SMILES beside them.
Keep it simple and answer with nothing but the number.

Value of logP reported for the molecule CC[C@H](C)[C@H](NC(=O)[C@@H](NC(=O)[C@@H](NC(=O)[C@H](Cc1c[nH]cn1)NC(=O)[C@@H](NC(C)=O)C(C)C)C(C)C)[C@@H](C)O)C(=O)N1CCC[C@H]1C(=O)N[C@@H](C)C(=O)N[C@@H](CC(=O)O)C(=O)N[C@@H](CC(C)C)C(=O)N[C@@H](Cc1c[nH]c2ccccc12)C(=O)N[C@@H](CCC(=O)O)C(=O)N[C@@H](Cc1c[nH]c2ccccc12)C(=O)N[C@@H](Cc1ccccc1)C(=O)N[C@@H](CCCNC(=N)N)C(=O)N[C@@H](CCCNC(=N)N)C(N)=O [SEQ ID NO: 121] (Ac-VHVTIPADLWEWFRR-NH2) is -0.51

Please look at the following molecule next.
Field logP (entry CC(=O)N[C@H](C(=O)N[C@@H](Cc1c[nH]cn1)C(=O)N[C@H](C(=O)N[C@H](C(=O)N[C@@H](Cc1ccccc1)C(=O)N1CCC[C@H]1C(=O)N[C@@H](C)C(=O)N[C@@H](CC(=O)O)C(=O)N[C@@H](CC(C)C)C(=O)N[C@@H](Cc1c[nH]c2ccccc12)C(=O)N[C@@H](CCC(=O)O)C(=O)N[C@@H](Cc1c[nH]c2ccccc12)C(=O)N[C@H](C(=O)N[C@@H](CCCNC(=N)N)C(=O)N[C@@H](CCCNC(=N)N)C(N)=O)C(C)C)[C@@H](C)O)C(C)C)C(C)C [SEQ ID NO: 114] (Ac-VHVTFPADLWEWVRR-NH2) ) reads -0.21

----------
# TEST_SYSTEM: IL-17RA/IL17RC dimerization induced by IL-17A (Homo sapiens, UniProt Q16552)
# Sequence (Q16552 24-155): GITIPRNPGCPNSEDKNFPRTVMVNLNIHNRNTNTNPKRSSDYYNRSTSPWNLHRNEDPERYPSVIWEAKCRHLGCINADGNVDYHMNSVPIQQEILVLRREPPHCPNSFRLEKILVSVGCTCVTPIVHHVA
# ASSAY: IL-17RA/IL17RC dimerization assay in response to IL-17A (PathHunter Cytokine Receptor Assay)
# Type: cell-based
# APPLIED_CONDITIONS: IL-17A at EC80; read-out: IC50 in IL-17RA/IL7RC dimerization assay
Residues, ends and D or L forms follow the SMILES beside them.
Below is a list of entries, each paired with its recorded IC50 value.

The recorded IC50 with IL-17RA/IL17RC dimerization induced by IL-17A (Homo sapiens, UniProt Q16552) for CC[C@H](C)[C@H](NC(C)=O)C(=O)N[C@@H](Cc1c[nH]cn1)C(=O)N[C@H](C(=O)N[C@H](C(=O)N[C@H](C(=O)N1CCC[C@H]1C(=O)N[C@@H](C)C(=O)N[C@@H](CC(=O)O)C(=O)N[C@@H](CC(C)C)C(=O)N[C@@H](Cc1c[nH]c2ccccc12)C(=O)N[C@@H](CC(=O)O)C(=O)N[C@@H](Cc1ccc(O)cc1)C(=O)N[C@H](C(=O)N[C@@H](CC(N)=O)C(=O)N[C@@H](CCCCN)C(N)=O)[C@@H](C)CC)[C@@H](C)CC)[C@@H](C)O)C(C)C [SEQ ID NO: 211] (Ac-IHVTIPADLWDYINK-NH2) was < 10 µM

---
Log: IL-17RA/IL17RC dimerization induced by IL-17A (Homo sapiens, UniProt Q16552), molecule CC[C@H](C)[C@H](NC(C)=O)C(=O)N[C@@H](Cc1c[nH]cn1)C(=O)N[C@H](C(=O)N[C@H](C(=O)N[C@H](C(=O)NCC(=O)N[C@@H](C)C(=O)N[C@@H](CC(=O)O)C(=O)N[C@@H](CC(C)C)C(=O)N[C@@H](Cc1c[nH]c2ccccc12)C(=O)N[C@@H](CC(=O)O)C(=O)N[C@@H](Cc1c[nH]c2ccccc12)C(=O)N[C@H](C(=O)N[C@@H](CC(N)=O)C(=O)N[C@@H](CCCCN)C(N)=O)[C@@H](C)CC)[C@@H](C)CC)[C@@H](C)O)C(C)C [SEQ ID NO: 187] (Ac-IHVTIGADLWDWINK-NH2) , IC50 = < 10 µM

Record CC[C@H](C)[C@H](NC(=O)[C@@H](NC(=O)[C@@H](NC(=O)[C@H](Cc1c[nH]cn1)NC(=O)[C@@H](NC(C)=O)C(C)C)C(C)C)[C@@H](C)O)C(=O)N1CCC[C@H]1C(=O)N[C@@H](C)C(=O)N[C@@H](CCC(=O)O)C(=O)N[C@@H](CC(C)C)C(=O)N[C@@H](Cc1c[nH]c2ccccc12)C(=O)N[C@@H](CCC(=O)O)C(=O)N[C@@H](Cc1c[nH]c2ccccc12)C(=O)N[C@H](C(=O)N[C@@H](CCCNC(=N)N)C(=O)N[C@@H](CCCNC(=N)N)C(N)=O)C(C)C [SEQ ID NO: 111] (Ac-VHVTIPAELWEWVRR-NH2) / IL-17RA/IL17RC dimerization induced by IL-17A (Homo sapiens, UniProt Q16552), IC50 recorded as < 0.5 µM

Bench note, IL-17RA/IL17RC dimerization induced by IL-17A (Homo sapiens, UniProt Q16552): CC(=O)N[C@H](C(=O)N[C@@H](Cc1c[nH]cn1)C(=O)N[C@@H](Cc1ccccc1)C(=O)N[C@@H](CCC(N)=O)C(=O)N[C@@H](Cc1ccccc1)C(=O)N1CCC[C@H]1C(=O)N[C@@H](CCC(N)=O)C(=O)N[C@@H](CC(=O)O)C(=O)N[C@@H](CC(C)C)C(=O)N[C@@H](Cc1c[nH]c2ccccc12)C(=O)N[C@@H](CCC(=O)O)C(=O)N[C@@H](Cc1ccccc1)C(=O)N[C@H](C(=O)N[C@@H](CCCNC(=N)N)C(=O)N[C@@H](CCCNC(=N)N)C(N)=O)C(C)C)C(C)C [SEQ ID NO: 140] (Ac-VHFQFPQDLWEFVRR-NH2) , IC50 reads < 0.5 µM
